These measurements were taken from ChEMBL document CHEMBL5303573.

# procedureSummary: The drug is tested on Bacteroides finegoldii strain: DSM17565 for biotransformation. The drug concentrations were measured before and after a 12-h incubation by liquid-chromatography-coupled mass spectrometry (LC–MS)
# measurementParameters: 2 µM
propertyLabel: Bacterial Biotransformation

Recorded Bacterial Biotransformation, per entry:
• COCCc1ccc(OCC(O)CNC(C)C)cc1.COCCc1ccc(OCC(O)CNC(C)C)cc1.O=C(O)C(O)C(O)C(=O)O (stereo not drawn) [METOPROLOL TARTRATE] = Compound NOT metabolized
• Clc1ccc(Cn2c(CN3CCCC3)nc3ccccc32)cc1 = Compound NOT metabolized
• CN(C)CCC=C1c2ccccc2C=Cc2ccccc21 = Compound NOT metabolized
• CC(C)(C#N)c1cc(Cn2cncn2)cc(C(C)(C)C#N)c1 = Compound NOT metabolized
• CC(C)C[C@H]1C(=O)N2CCC[C@H]2[C@]2(O)O[C@](NC(=O)[C@@H]3C=C4c5cccc6[nH]c(Br)c(c56)C[C@H]4N(C)C3)(C(C)C)C(=O)N12.CS(=O)(=O)O [BROMOCRIPTINE MESYLATE] = Compound metabolized
• N#Cc1ccc2c(c1)N(CCCN1CCC(O)CC1)c1ccccc1S2 = Compound metabolized
• O=c1n(CCCN2CCN(c3cccc(Cl)c3)CC2)nc2ccccn12 = Compound NOT metabolized

Now turn to the next molecule.
Request the reported Bacterial Biotransformation associated with COC1=CC(=O)C[C@@H](C)[C@]12Oc1c(Cl)c(OC)cc(OC)c1C2=O
Compound NOT metabolized

----------
# procedureSummary: The drug is tested on Bacteroides finegoldii strain: DSM17565 for biotransformation. The drug concentrations were measured before and after a 12-h incubation by liquid-chromatography-coupled mass spectrometry (LC–MS)
# measurementParameters: 2 µM
propertyLabel: Bacterial Biotransformation

See these solved cases before continuing.
* Br.CN(C)CCCC1(c2ccc(F)cc2)OCc2cc(C#N)ccc21 (stereo not drawn) [CITALOPRAM HYDROBROMIDE] | Compound NOT metabolized
* C=CCN1CC[C@]23c4c5ccc(O)c4O[C@H]2C(=O)CC[C@@]3(O)[C@H]1C5 | Compound NOT metabolized
* CCCC(=O)Nc1ccc(OCC(O)CNC(C)C)c(C(C)=O)c1 (stereo not drawn) | Compound NOT metabolized
* CC(=O)OCC(=O)[C@@]1(OC(C)=O)[C@@H](C)C[C@H]2[C@@H]3C[C@H](F)C4=CC(=O)C=C[C@]4(C)[C@@]3(F)[C@@H](O)C[C@@]21C [DIFLORASONE DIACETATE] | Compound metabolized
* CC(=O)O[C@]1(C(C)=O)CC[C@H]2[C@@H]3C=C(C)C4=CC(=O)CC[C@]4(C)[C@H]3CC[C@@]21C [MEGESTROL ACETATE] | Compound NOT metabolized
* C#C[C@]1(OC(C)=O)CC[C@H]2[C@@H]3CCC4=C/C(=N/O)CC[C@@H]4[C@H]3CC[C@@]21CC [NORGESTIMATE] | Compound metabolized
* CC(=O)Nc1ccc(OC(C)=O)cc1 [DIACETAMATE] | Compound metabolized
* CC(CN1c2ccccc2Sc2ccccc21)N(C)C (stereo not drawn) | Compound NOT metabolized
* CC(C)c1nc(CN(C)C(=O)N[C@H](C(=O)N[C@@H](Cc2ccccc2)C[C@H](O)[C@H](Cc2ccccc2)NC(=O)OCc2cncs2)C(C)C)cs1 | Compound NOT metabolized
* O=C(O)c1cc(/N=N/c2ccc(S(=O)(=O)Nc3ccccn3)cc2)ccc1O | Compound metabolized

Given Cc1ccc(NC(=O)c2ccc(CN3CCN(C)CC3)cc2)cc1Nc1nccc(-c2cccnc2)n1 , state its recorded Bacterial Biotransformation.
Compound NOT metabolized
